Biological target: Arabidopsis thaliana SHMT
Test: SHMT activity assay (ED50 SHMT), coupled with N5,N10-CH2-THF dehydrogenase, NADH at 340 nm
Type: biochemical
Conditions: inhibition of initial velocity of Arabidopsis thaliana SHMT
pEC50: −log10 of the molar value.
quantity_measured: pEC50

Recorded pEC50, per entry:
Cc1ccc(-c2ccc(C3(C4CCC4)C(C#N)=C(N)Oc4[nH]nc(C)c43)s2)cc1 (centres unmarked) = > 8.00
Cc1n[nH]c2c1C(c1cc(-c3ccco3)cs1)(C1CCC1)C(C#N)=C(N)O2 (centres unmarked) = > 8.00
Cc1n[nH]c2c1C(c1ccc(-c3ccc(C(F)(F)F)cc3)s1)(C1CCC1)C(C#N)=C(N)O2 (centres unmarked) = > 8.00

State the recorded pEC50 for every item in the following list.
1. Cc1n[nH]c2c1C(c1ccc3c(c1)nnn3C)(C1CCC1)C(C#N)=C(N)O2 (centres unmarked)
2. Cc1n[nH]c2c1C(c1ccc3[nH]c(C(F)(F)F)nc3c1)(C1CCC1)C(C#N)=C(N)O2 (centres unmarked)
3. N#CC1=C(N)Oc2[nH]ncc2C1(c1cc2ccccc2o1)C1CCC1 (centres unmarked)
4. Cc1n[nH]c2c1C(c1cc(-c3ccccc3)cs1)(C(C)C)C(C#N)=C(N)O2 (centres unmarked)
5. Cc1n[nH]c2c1C(c1cc(-c3cccc(F)c3)cs1)(C1CCC1)C(C#N)=C(N)O2 (centres unmarked)

### Response
1: > 7.00; 2: > 7.00; 3: > 7.00; 4: > 5.00; 5: > 7.00

###

Molecular target: Arabidopsis thaliana SHMT
Assay: SHMT activity assay (ED50 SHMT), coupled with N5,N10-CH2-THF dehydrogenase, NADH at 340 nm
Assay type: biochemical
Details: inhibition of initial velocity of Arabidopsis thaliana SHMT
pEC50: −log10 of the molar value.
quantity_measured: pEC50

Recorded pEC50, per entry:
CCC1(c2cc(F)c(F)cc2F)C(C#N)=C(N)Oc2[nH]nc(C)c21 (stereo not shown) = > 5.00
COC(=O)c1csc(C2(C3CCC3)C(C#N)=C(N)Oc3[nH]nc(C)c32)c1 (stereo not shown) = > 8.00
Cc1ccc2cc(C3(C4CCC4)C(C#N)=C(N)Oc4[nH]nc(C)c43)cc(C(F)(F)F)c2n1 (stereo not shown) = > 8.00

Next up:
### Prompt Recorded pEC50 for Cc1n[nH]c2c1C(c1cc3c(C(F)(F)F)cccc3s1)(C1CCC1)C(C#N)=C(N)O2 (stereo not shown) , please?
### Response > 8.00

###

Molecular target: Arabidopsis thaliana SHMT
Assay: SHMT activity assay (ED50 SHMT), coupled with N5,N10-CH2-THF dehydrogenase, NADH at 340 nm
Type: biochemical
Settings: Table 2; values given as upper bounds
Assignment: determine reported EC50 for the given compounds.

Recorded EC50, per entry:
Cc1n[nH]c2c1C(c1cc(Cl)c(O)c(C#N)c1)(C1CCC1)C(C#N)=C(N)O2 (centres unmarked) = < 100 nM
Cc1n[nH]c2c1C(c1cc(Cl)cc(OCCC(=O)O)c1)(C1CCC1)C(C#N)=C(N)O2 (racemic) = < 10 nM
CCCC1(c2cc(Br)cc(C#N)c2)C(C#N)=C(N)Oc2[nH]nc(C(C)C)c21 (centres unmarked) = < 100 nM
CCc1n[nH]c2c1C(c1cccc(C(F)(F)F)c1)(C1CC1)C(C#N)=C(N)O2 (centres unmarked) = < 1000 nM
COc1c(F)cc(C2(C3CCC3)C(C#N)=C(N)Oc3[nH]nc(C)c32)cc1F (centres unmarked) = < 10 nM

State the recorded EC50 for every item in the following list.
1. COCOc1cc(Cl)cc(C2(C3CCC3)C(C#N)=C(N)Oc3[nH]nc(C)c32)c1 (centres unmarked)
2. CCC1(c2cccc(F)c2)C(C#N)=C(N)Oc2[nH]nc(C)c21 (centres unmarked) [Compound 2.15.]
3. Cc1n[nH]c2c1C(c1cc(Cl)cc(Oc3ccc(F)cc3)c1)(C1CC1)C(C#N)=C(N)O2 (centres unmarked)

### Response
1: < 10 nM; 2: < 10000 nM; 3: < 100 nM
